Biological target: Mu-type opioid receptor (Rattus norvegicus) (UniProt P33535)
Sequence (P33535 whole entry): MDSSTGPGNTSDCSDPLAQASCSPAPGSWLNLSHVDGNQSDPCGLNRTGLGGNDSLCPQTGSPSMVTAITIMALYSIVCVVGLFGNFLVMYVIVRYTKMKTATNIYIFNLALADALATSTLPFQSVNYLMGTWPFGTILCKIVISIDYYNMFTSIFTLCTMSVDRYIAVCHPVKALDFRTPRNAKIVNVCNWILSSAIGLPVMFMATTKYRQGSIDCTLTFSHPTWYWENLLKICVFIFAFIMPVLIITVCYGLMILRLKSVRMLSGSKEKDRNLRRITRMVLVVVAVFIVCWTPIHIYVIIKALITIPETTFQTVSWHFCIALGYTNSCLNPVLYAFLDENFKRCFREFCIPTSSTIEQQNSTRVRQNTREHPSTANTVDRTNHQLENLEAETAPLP
Assay: Displacement of [3H]diprenorphine from rat mu opioid receptor expressed in CHO cell membranes at 10^-5 M after 30 mins by liquid scintillation counting analysis
measurement name: inhibition (%)
Express it in %; write the number only.

query: # get_value(readout='inhibition', item= O=C1CC(C(=O)N2CCc3ccccc3C2C[N+]2(Cc3ccc(Cl)cc3)CCCC2)c2cc(Cl)ccc21 (centres undefined) )
result: 10

query: # get_value(readout='inhibition', item= O=C1CC(C(=O)N2CCc3ccccc3C2C[N+]2(Cc3ccccc3)CCCC2)c2cc(Cl)ccc21 (centres undefined) )
result: 0

query: # get_value(readout='inhibition', item= COc1ccc(C[N+]2(CC3c4ccccc4CCN3C(=O)C3CC(=O)c4ccc(Cl)cc43)CCCC2)cc1 (centres undefined) )
result: 9.8
